assay_target: human PDE4D3 (Homo sapiens, UniProt Q08499)
Construct: His6 (C); made in house; host or cells: insect cells (baculovirus, pFastBac)
Sequence (Q08499 186-808): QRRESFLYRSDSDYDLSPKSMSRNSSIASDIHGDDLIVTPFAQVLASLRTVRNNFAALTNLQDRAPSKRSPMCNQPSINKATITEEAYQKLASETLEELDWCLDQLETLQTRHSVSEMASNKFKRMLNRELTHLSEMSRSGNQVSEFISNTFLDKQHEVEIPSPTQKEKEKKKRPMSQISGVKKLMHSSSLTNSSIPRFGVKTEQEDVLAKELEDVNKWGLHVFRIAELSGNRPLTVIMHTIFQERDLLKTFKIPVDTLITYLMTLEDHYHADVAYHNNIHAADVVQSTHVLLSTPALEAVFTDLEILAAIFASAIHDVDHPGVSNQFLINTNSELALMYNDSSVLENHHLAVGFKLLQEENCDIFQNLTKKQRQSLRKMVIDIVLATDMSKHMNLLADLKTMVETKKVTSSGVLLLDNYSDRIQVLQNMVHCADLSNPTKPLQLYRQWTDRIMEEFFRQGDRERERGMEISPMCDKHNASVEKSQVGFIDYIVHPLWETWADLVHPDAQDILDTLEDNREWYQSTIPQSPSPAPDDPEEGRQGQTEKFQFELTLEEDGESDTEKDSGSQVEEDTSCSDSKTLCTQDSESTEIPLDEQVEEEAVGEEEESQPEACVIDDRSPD
protocol_description: PDE4D3 Scintillation Proximity Assay (SPA), inhibition of enzyme activity
Assay type: biochemical
Structures can show the parent of a compound that is named as a salt.
experimental_readout: pIC50
Answers are plain numbers, as −log10 of the molar value.

Problem: Hello, please tell me recorded pIC50 for this one: O=C(c1nn2cc(F)cnc2c1-c1ccc(Cl)cc1)N1CCC1 [Example 9, Formate Salt]
Solution: 5.43

###

Notes on IC50 obtained with Human PDE4A3 (Homo sapiens, UniProt P27815).
Sequence (P27815 2-825 isoform P27815-6): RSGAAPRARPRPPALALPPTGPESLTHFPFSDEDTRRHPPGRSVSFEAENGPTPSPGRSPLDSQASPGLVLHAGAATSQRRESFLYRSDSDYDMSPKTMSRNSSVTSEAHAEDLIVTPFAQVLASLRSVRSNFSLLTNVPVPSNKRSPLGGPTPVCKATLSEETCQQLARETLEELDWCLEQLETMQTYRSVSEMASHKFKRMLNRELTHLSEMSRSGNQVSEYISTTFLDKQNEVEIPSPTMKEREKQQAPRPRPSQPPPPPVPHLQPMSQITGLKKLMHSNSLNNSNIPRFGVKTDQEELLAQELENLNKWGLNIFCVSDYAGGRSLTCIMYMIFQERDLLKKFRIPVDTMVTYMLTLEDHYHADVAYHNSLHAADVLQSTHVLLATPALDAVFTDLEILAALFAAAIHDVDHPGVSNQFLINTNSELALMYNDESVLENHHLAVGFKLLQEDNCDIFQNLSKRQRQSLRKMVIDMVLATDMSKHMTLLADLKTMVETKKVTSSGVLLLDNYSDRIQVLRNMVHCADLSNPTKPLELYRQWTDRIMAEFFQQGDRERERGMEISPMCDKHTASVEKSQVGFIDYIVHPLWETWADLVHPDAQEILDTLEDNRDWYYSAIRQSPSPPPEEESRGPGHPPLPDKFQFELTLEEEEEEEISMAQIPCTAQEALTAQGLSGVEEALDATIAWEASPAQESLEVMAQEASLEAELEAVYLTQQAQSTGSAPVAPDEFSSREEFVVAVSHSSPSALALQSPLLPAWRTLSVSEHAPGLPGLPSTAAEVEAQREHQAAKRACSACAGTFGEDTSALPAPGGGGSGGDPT
Answers are plain numbers, in nM.

List the reported IC50 of each molecule below.
1. Cc1ccc(-c2c(C(=O)NC3CC3)nn3cc(F)cnc23)cc1F [Example 63]
2. O=C(NC12CC(C1)C2)c1nn2cccnc2c1-c1ccc(Cl)cc1 [Example 27]

Solution:
4.02
55.8

###

assay_target: human PDE4D3 (Homo sapiens, UniProt Q08499)
Construct: His6 (C); made in house; host or cells: insect cells (baculovirus, pFastBac)
protocol_description: PDE4D3 Scintillation Proximity Assay (SPA), inhibition of enzyme activity
Type: biochemical
condition_summary: geometric mean of 2-7 determinations unless otherwise indicated (b: ≥8 determinations; c: single determination); 1 μM cAMP, 30 min at 25° C.; read-out: Human PDE4D FL; IC50
experimental_readout: pIC50
One number for each entry, as −log10 of the molar value.

Completed entries (count: 6):
Problem: Please tell me the measured pIC50 for N#Cc1cc(F)c(-c2c(C(=O)NC3CC3)nn3cccnc23)cc1F ; system: human PDE4D3 (Homo sapiens, UniProt Q08499).
Solution: 5.88

Problem: Please report pIC50 with human PDE4D3 (Homo sapiens, UniProt Q08499) for item CCNC(=O)c1nn2cccnc2c1-c1cc(F)c(Cl)cc1F .
Solution: 5.68

Problem: Provide human PDE4D3 (Homo sapiens, UniProt Q08499) pIC50 reading for O=C(c1nn2cc(F)cnc2c1-c1ccc(Cl)c(F)c1)N1CCC1 .
Solution: 7.10

Problem: Provide pIC50, tested on human PDE4D3 (Homo sapiens, UniProt Q08499), for O=C(NC1CC1)c1nn2cccnc2c1-c1cncc(Cl)c1 .
Solution: 5.52

Problem: Report value only: pIC50, human PDE4D3 (Homo sapiens, UniProt Q08499), Cc1cc(C#N)c(F)cc1-c1c(C(=O)NC2CC2)nn2cccnc12
Solution: 6.35

Problem: Write down measured pIC50 (human PDE4D3 (Homo sapiens, UniProt Q08499)) for this molecule. CCNC(=O)c1nn2cccnc2c1-c1cc(F)c(Cl)cc1C
Solution: 6.01

Others:
Problem: Answer with pIC50 of Cc1cc(C#N)c(F)cc1-c1c(C(=O)NC2CC2)nn2cc(F)cnc12 measured for human PDE4D3 (Homo sapiens, UniProt Q08499).
Solution: 6.95

###

assay_target: Human PDE4B1 (Homo sapiens, UniProt Q07343, S133E/S654A/S659A/S661A)
Construct: His6 (N); thrombin cleavage site (N); made in house; host or cells: insect cells (baculovirus, pFastBac)
Sequence (Q07343 122-736 S133E/S654A/S659A/S661A): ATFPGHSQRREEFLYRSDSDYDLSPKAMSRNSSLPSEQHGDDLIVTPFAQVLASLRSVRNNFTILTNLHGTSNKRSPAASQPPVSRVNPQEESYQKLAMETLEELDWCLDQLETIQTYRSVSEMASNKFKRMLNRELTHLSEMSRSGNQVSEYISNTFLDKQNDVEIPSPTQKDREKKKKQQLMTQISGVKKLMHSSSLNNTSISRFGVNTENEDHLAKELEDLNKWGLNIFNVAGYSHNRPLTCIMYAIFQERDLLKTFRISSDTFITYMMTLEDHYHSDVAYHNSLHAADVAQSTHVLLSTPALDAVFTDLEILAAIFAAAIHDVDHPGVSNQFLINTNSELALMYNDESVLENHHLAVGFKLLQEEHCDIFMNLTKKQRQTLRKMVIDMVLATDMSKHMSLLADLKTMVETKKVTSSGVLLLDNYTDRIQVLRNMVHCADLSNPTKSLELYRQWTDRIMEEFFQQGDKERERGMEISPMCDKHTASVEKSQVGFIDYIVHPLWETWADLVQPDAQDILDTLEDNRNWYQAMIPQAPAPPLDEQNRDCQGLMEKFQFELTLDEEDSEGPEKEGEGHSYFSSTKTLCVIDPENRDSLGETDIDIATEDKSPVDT
protocol_description: PDE4B1 Scintillation Proximity Assay (SPA), inhibition of enzyme activity
Format: biochemical
condition_summary: geometric mean of 2-7 determinations unless otherwise indicated (b: ≥8 determinations; c: single determination); 1 μM cAMP, 30 min at 25° C.; read-out: Human PDE4B FL; IC50
pIC50: −log10 of the molar value.
Decide by pIC50: equal to or exceeding 7 means 1, less means -1.

Record excerpt, results attached:
Problem: Kindly determine if pIC50 recorded for Cc1ccc(-c2c(C(=O)NC3CC3)nn3cc(F)cnc23)cc1F [Example 63] is above or exactly 7.
Solution: 1

Problem: Assess whether reported pIC50 for O=C(NC1CC1)c1nn2cccnc2c1-c1ccc2ncoc2c1 [Example 43] sits at 7 or higher.
Solution: -1

Problem: Quick check, pIC50 >= 7? Cc1cc(Cl)ccc1-c1c(C(=O)NC2CC2)nn2cccnc12 [Example 6]
Solution: 1

Problem: Could you tell me if the measured pIC50 of CCNC(=O)c1nn2cccnc2c1-c1cc(F)c(Cl)cc1F [Example 19] reaches 7 or more?
Solution: 1

***
Problem: Test whether the compound O=C(NC1CC1)c1nn2cccnc2c1-c1cc(Cl)ccc1F [Example 13] records pIC50 of 7 or higher.
Solution: 1

Problem: Threshold query (pIC50 >= 7) on O=C(NC1CC1)c1nn2cc(F)cnc2c1-c1ccc(Cl)c(F)c1F [Example 58]
Solution: 1

Problem: Textbook exercise: given the entry Cc1cc(Cl)ccc1-c1c(C(=O)NC2CC2)nn2cc(F)cnc12 [Example 55] , state whether its pIC50 is greater than or equal to 7.
Solution: 1

Problem: Given the entry CC(C)NC(=O)c1nn2cccnc2c1-c1ccc(Cl)cc1 [Example 26] , answer whether its pIC50 meets or surpasses 7.
Solution: -1

Problem: Can O=C(c1nn2cccnc2c1-c1cc(F)c(Cl)c(F)c1)N1CCC1 [Example 41] be said to have pIC50 at or above 7?
Solution: 1

Problem: Textbook exercise: given the entry O=C(NC1CC1)c1nn2cccnc2c1-c1ccc2ocnc2c1 [Example 60] , state whether its pIC50 is greater than or equal to 7.
Solution: -1

Problem: Given the entry Cc1ccc(-c2c(C(=O)NC3CC3)nn3cccnc23)cc1F [Example 70] , answer whether its pIC50 meets or surpasses 7.
Solution: 1

Problem: Check the entry Cc1cc(C#N)c(F)cc1-c1c(C(=O)NC2CC2)nn2cc(F)cnc12 [Example 67] : does pIC50 equal or exceed 7?
Solution: 1

###

assay_target: human PDE4D3 (Homo sapiens, UniProt Q08499)
Construct: His6 (C); made in house; host or cells: insect cells (baculovirus, pFastBac)
protocol_description: PDE4D3 Scintillation Proximity Assay (SPA), inhibition of enzyme activity
Type: biochemical
condition_summary: geometric mean of 2-7 determinations unless otherwise indicated (b: ≥8 determinations; c: single determination); 1 μM cAMP, 30 min at 25° C.; read-out: Human PDE4D FL; IC50
Structures can show the parent of a compound that is named as a salt.
Please go through the items and note down their IC50.
Numbers only, in nM.

Known results for compounds:
Problem: Provide the reported IC50 (system: human PDE4D3 (Homo sapiens, UniProt Q08499)) for Cc1cc(Cl)c(F)cc1-c1c(C(=O)N2CCC2)nn2cccnc12
Solution: 98

Problem: Answer with IC50 of O=C(NC1CC1)c1nn2cc(F)cnc2c1-c1ccc(Cl)c(F)c1F measured for human PDE4D3 (Homo sapiens, UniProt Q08499).
Solution: 430

Below are some compounds; for each one, tell me its IC50.
1. O=C(c1nn2cccnc2c1-c1ccc(Cl)cc1F)N1CCC1
2. O=C(c1nn2cccnc2c1-c1cc(F)c(Cl)c(F)c1)N1CCC1
3. O=C(NC1CC1)c1nn2cc(F)cnc2c1-c1cc(F)c(Cl)c(F)c1

Solution:
[10900, 350, 92.1]

# batch size: 8; output IC50 per entry
1. O=C(NC1CC1)c1nn2cccnc2c1-c1ccc(Cl)cc1
2. O=C(NC1CC1)c1nn2cc(F)cnc2c1-c1ccc(Cl)c(F)c1
3. O=C(NC1CC1)c1nn2cccnc2c1-c1ccnc(OC(F)F)c1 [Example 38, formate salt]
4. Cc1cc(Cl)ccc1-c1c(C(=O)NC2CC2)nn2cc(F)cnc12
5. Cc1cc(Cl)c(F)cc1-c1c(C(=O)NC(C)C)nn2cccnc12
6. N#Cc1cc(F)c(-c2c(C(=O)N3CCC3)nn3cccnc23)cc1F
7. Cc1ccc(-c2c(C(=O)NC3CC3)nn3cc(F)cnc23)cc1F
8. O=C(c1nn2cccnc2c1-c1ccc(Cl)c(F)c1)N1CCC1

Solution:
5840
159
706
1060
469
979
459
993

Problem: Please tell me the measured IC50 for Cc1cc(C#N)c(F)cc1-c1c(C(=O)N2CCC2)nn2cccnc12 ; system: human PDE4D3 (Homo sapiens, UniProt Q08499).
Solution: 92.9

###

assay_target: Human PDE4B1 (Homo sapiens, UniProt Q07343, S133E/S654A/S659A/S661A)
Construct: His6 (N); thrombin cleavage site (N); made in house; host or cells: insect cells (baculovirus, pFastBac)
protocol_description: PDE4B1 Scintillation Proximity Assay (SPA), inhibition of enzyme activity
Type: biochemical
Experimental: The recombinant Bacmid was isolated and used to transfect insect cells to generate a viral stock. To generate cell paste for purification, insect cells were infected with the virus stock and cells were harvested 72 hours after infection as described in Seeger, T. F. et al., Brain Research 985 (2003) 113-126. […] PDE4D fractions were analyzed by SDS-PAGE Coomassie blue staining, pooled based on purity, frozen and stored at −80° C. […]
Where a name gives a salt, the structure may show the parent alone.
experimental_readout: IC50 (µM)
One number for each entry, in µM.

Problem: Read the entry O=C(c1nn2cc(F)cnc2c1-c1ccc(Cl)cc1)N1CCC1 [Example 9, Formate Salt] and write its reported IC50.
Solution: 0.0344
